- Test system: Mycobacterium tuberculosis Erdman (autoluminescent)
- Method: FIC50 (Loewe) at 50% inhibition (log2); higher = more antagonistic
- Condition Summary: in vitro model: butyrate; time point: constant (~7 days, model-specific)
Recorded Endpoint: FIC50
Answers are plain numbers.

Solved cases below.
NNC(=O)c1ccncc1 [isoniazid] + CO[C@H]1/C=C/O[C@@]2(C)Oc3c(C)c(O)c4c(O)c(c(/C=N/N5CCN(C)CC5)c(O)c4c3C2=O)NC(=O)/C(C)=C\C=C\[C@H](C)[C@H](O)[C@@H](C)[C@@H](O)[C@@H](C)[C@H](OC(C)=O)[C@@H]1C [rifampicin]: 0.279
COc1nc2ccc(Br)cc2cc1[C@@H](c1ccccc1)[C@@](O)(CCN(C)C)c1cccc2ccccc12 [bedaquiline] + O=[N+]([O-])c1cn2c(n1)OC[C@@H](OCc1ccc(OC(F)(F)F)cc1)C2 [pretomanid]: 0.76

Q. // lookup FIC50 | system=Mycobacterium tuberculosis Erdman (autoluminescent) | key= O=[N+]([O-])c1cn2c(n1)OC[C@@H](OCc1ccc(OC(F)(F)F)cc1)C2 [pretomanid] + CO[C@H]1/C=C/O[C@@]2(C)Oc3c(C)c(O)c4c(O)c(c(/C=N/N5CCN(C6CCCC6)CC5)c(O)c4c3C2=O)NC(=O)/C(C)=C\C=C\[C@H](C)[C@H](O)[C@@H](C)[C@@H](O)[C@@H](C)[C@H](OC(C)=O)[C@@H]1C
A. 0.307
